- Tested on: EKVX NSCLC
- EXPERIMENTAL DETAILS: NCI-60 one-dose screen, 48 h (100 = growth as untreated, 0 = no growth, -100 = all killed)
- MEASUREMENT SETUP: 10 µM unless noted
The panel holds about 83,000 compounds, 20% with a hit somewhere; the sample as a whole holds those more often.
# strict inequality: growth < 80% yields Yes, everything else yields No

For this compound, is growth lower than 80%? CCn1c(Sc2nnc(Nc3ccccc3)s2)nc2c1c(=O)n(C)c(=O)n2C No

For this compound, is growth lower than 80%? C=C1C(=O)O[C@H]2[C@H]1CC/C(Cn1cc(CNCCc3c[nH]c4ccccc34)nn1)=C\CC[C@@]1(C)O[C@@H]21 No

For this compound, is growth lower than 80%? N#Cc1cccc(-c2nc3ccccn3c2NCCN2CCOCC2)c1 No

For this compound, is growth lower than 80%? CCCCCCCCCCCCCCCCCC1=NCCN1C(=O)OCCO No

For this compound, is growth lower than 80%? Cc1ccc(O)c(C(=O)c2ccccc2Cl)c1 No

For this compound, is growth lower than 80%? N#Cc1cnn2c(-c3ccc(Cl)cc3)nc(NC3CC3)nc12 Yes

For this compound, is growth lower than 80%? CCCCCCNC(=O)c1cc(NCc2cc(O)ccc2O)ccc1O Yes

For this compound, is growth lower than 80%? CN(C)c1ccc(/C=C2\C=C(c3ccccc3)N(CCc3ccccc3)C2=O)cc1 Yes

For this compound, is growth lower than 80%? CCNCCNc1cc(-c2ccc(C(=O)OC)cc2)c(C#N)c2nc3ccccc3n12 No

For this compound, is growth lower than 80%? COC(=O)Nc1nc2ccc(C(=O)C3CC3)cc2[nH]1 Yes

----------
- Tested on: RXF 393 renal
- EXPERIMENTAL DETAILS: NCI-60 one-dose screen, 48 h (100 = growth as untreated, 0 = no growth, -100 = all killed)
- MEASUREMENT SETUP: 10 µM unless noted
- Protocol: Cells are grown in 96 well plates and exposed to the test compound for 48 hours. Compounds are tested at a single concentration, which is 10^-5 M for most compounds. The reported endpoint is percent growth (GI% or GIPRCNT), where numbers from 0 - 100% represent growth inhibition, and numbers from -100% - 0 represent cell death. For example, a value of 40 represents 60% growth inhibition. A value of 0 means no net growth occurred over the course of the experiment. […]
This is part of a sample that, as a whole, favours compounds with a hit. Of some 83,000 tested, about 20% had one in any assay.
READOUT TYPE: growth (%)
Give just the number in %; leave the unit off.

Param item = O=C1C2=C(CCN(Cc3ccccc3)C2)N2CCN=C2N1Cc1ccc(F)cc1F ; retrieve measured growth. 55

Param item = CN(C)c1ccc(/C=N/NC(=O)COc2cc(=O)n(C)c3ccccc23)cc1 ; retrieve measured growth. 93.4

Param item = Nc1c(-c2nc3ccccc3c(=O)[nH]2)nnn1-c1ccc(Cl)cc1 ; retrieve measured growth. 81.9

Param item = C[C@H]1[C@H]2C3=CC[C@@H]4[C@@]5(C)C/C(=C/c6ccncc6)C(=O)C(C)(C)[C@@H]5CC[C@@]4(C)[C@]3(C)CC[C@@]2(C(=O)N2CCN(C)CC2)CC[C@@H]1C ; retrieve measured growth. 83.8

----------
Can you tell me growth for the items I'm about to list?
- System: NCI-H23 lung
- EXPERIMENTAL DETAILS: NCI-60 one-dose screen, 48 h (100 = growth as untreated, 0 = no growth, -100 = all killed)
- MEASUREMENT SETUP: 10 µM unless noted
This is part of a sample that, as a whole, favours compounds with a hit. Of some 83,000 tested, about 20% had one in any assay.
Give just the number in %; leave the unit off.

Param item = COc1ccc(/C=C(\C#N)n2nnc3cc(F)c(F)cc32)c(OC)c1OC ; retrieve measured growth. 71.8

Param item = CN1CCN(CCCOc2ccc3nc(Nc4cc(Cl)cc(Cl)c4)ccc3c2)CC1 ; retrieve measured growth. -40.7

Param item = CCN(CC)c1ccc(Nc2ccc(CC(=O)c3ccccc3)cc2)cc1 ; retrieve measured growth. 81.1

----------
Can you tell me growth for the items I'm about to list?
- System: NCI-H460 lung
- EXPERIMENTAL DETAILS: NCI-60 one-dose screen, 48 h (100 = growth as untreated, 0 = no growth, -100 = all killed)
- MEASUREMENT SETUP: 10 µM unless noted
About 83,000 compounds went through this panel and 20% of them were active in at least one assay; those are over-represented in the sample as a whole.
Give just the number in %; leave the unit off.

Notebook: pull reported growth for NCI-H460 lung, entry C[C@@H]1CC[C@@H]2[C@@H]1[C@H](OC(=O)/C=C/c1ccccc1)[C@]1(CCCOCCOCCOCCOC(=O)CCCC[C@@H]3SC[C@@H]4NC(=O)N[C@@H]43)C[C@@H](OC(=O)CO)[C@@]2(C)O1 106

Notebook: pull reported growth for NCI-H460 lung, entry OC(c1cccc(OCc2ccccc2)c1)c1nnc(-c2ccccc2)o1 (stereo not drawn) 96

Notebook: pull reported growth for NCI-H460 lung, entry Nc1nc(N)c(-c2ccc(Cl)cc2)c(/C=C/c2ccc([N+](=O)[O-])cc2)n1 11.4

Notebook: pull reported growth for NCI-H460 lung, entry CCOC(=O)c1nnn(C(Cc2ccccc2Cl)C(=O)OCC)c1C (stereo not drawn) 101

Notebook: pull reported growth for NCI-H460 lung, entry CCN(CC)CCOC(=O)Nc1ccccc1Cl 104

Notebook: pull reported growth for NCI-H460 lung, entry Cc1ccc(Nc2ccc(Nc3ccc(C)cc3S(=O)(=O)O)c3c2C(=O)c2ccccc2C3=O)c(S(=O)(=O)O)c1 102

Notebook: pull reported growth for NCI-H460 lung, entry Cl.Fc1c[c-]c(-c2ccccn2)c(F)c1.[Pt].c1ccc([PH+](C[PH+](c2ccccc2)c2ccccc2)c2ccccc2)cc1 -63.5

Notebook: pull reported growth for NCI-H460 lung, entry O=C1C=CC(=Nc2cc(Br)c(O)c(Br)c2)C=C1 109

Notebook: pull reported growth for NCI-H460 lung, entry O=C1C2=C(CCN(Cc3ccccc3)C2)N2CCN=C2N1Cc1ccc(F)cc1F 15.5

Notebook: pull reported growth for NCI-H460 lung, entry CCOc1cc(N)ccc1C(=O)NCCCN(CC)CC 110

Notebook: pull reported growth for NCI-H460 lung, entry CC(C)CCC[C@@H](C)[C@H]1CCC2C3=CCC4C(=O)C=CC(=O)C4C3CC[C@@]21C (stereo partly drawn) 2.88

Notebook: pull reported growth for NCI-H460 lung, entry CCNCCNc1cc(-c2ccc(F)cc2)c(C#N)c2nc3ccccc3n12 3.07

Notebook: pull reported growth for NCI-H460 lung, entry N#Cc1c(N)n2c(nc1=Nc1ccc([N+](=O)[O-])cc1)sc1cc(Cl)ccc12 86.9

Notebook: pull reported growth for NCI-H460 lung, entry CO[C@H]1/C=C/O[C@@]2(C)Oc3c(C)c(O)c4c(c3C2=O)C(=O)C(/C=N/N(c2ccccc2)c2ccccc2)=C(NC(=O)/C(C)=C\C=C\[C@H](C)[C@H](O)[C@@H](C)[C@@H](O)[C@@H](C)[C@H](OC(C)=O)[C@@H]1C)C4=O -50.7

Notebook: pull reported growth for NCI-H460 lung, entry COc1ccc(OC)c(C(=O)Nc2cccc(-c3cc(=O)c4ccccc4o3)c2)c1 90

Notebook: pull reported growth for NCI-H460 lung, entry COc1ccc(Oc2nc(Nc3ccc(N4CCOCC4)nc3)ncc2NC(=O)c2cc(OC)cc(OC)c2)cc1 82.3

Notebook: pull reported growth for NCI-H460 lung, entry CN1CCC(=C2c3ccccc3C=Cc3ccccc32)CC1 93.3

Notebook: pull reported growth for NCI-H460 lung, entry CSc1ccc(Cl)c(C(=O)Nc2sccc2C(N)=O)c1 101

----------
- Test system: LOX IMVI melanoma
- EXPERIMENTAL DETAILS: NCI-60 one-dose screen, 48 h
- MEASUREMENT SETUP: 10 µM unless noted
This is part of a sample that, as a whole, favours compounds with a hit. Of some 83,000 tested, about 20% had one in any assay. Activity calls are given as the source filed them. The calls were made as follows: active = growth percent below 10; inactive = the rest.
Outcome (select one): active, inactive

Could you check what this test reported for CC(C)OCCCNCC(=O)Nc1ccc(S(=O)(=O)c2ccc(NC(=O)CNCCCOC(C)C)cc2)cc1 ? inactive

Could you check what this test reported for Nc1ccn(C2OC(F)(CO)C(O)C2F)c(=O)n1 (centres undefined) ? inactive

Could you check what this test reported for COc1ccc(O)c(-c2cc(-c3ccccc3)c(C#N)c(=O)[nH]2)c1 ? inactive

Could you check what this test reported for N#Cc1c(NC(=O)c2ccc(Br)cc2)sc2c1CCCC2 ? inactive

Could you check what this test reported for O=C(/C=C/C12c3ccccc3C(c3ccccc31)C1C(=O)N(c3ccccc3)C(=O)C12)c1ccccc1 (centres undefined) ? active

Could you check what this test reported for CCOC(=O)C1C(=O)C=C(c2cnccn2)CC1c1ccc(OC)c(OC)c1 (centres undefined) ? inactive

Could you check what this test reported for COc1cc2c(cc1OC)-c1ccc3cc4c(cc3c1N(CCCN(C)C)C2)OCO4 ? inactive

Could you check what this test reported for C=CCO[C@H]1CO[C@H]2[C@@H]1OC[C@@H]2Oc1ccc(Nc2ccnc(Nc3ccc(O[C@H]4CO[C@H]5[C@@H]4OC[C@@H]5OCC=C)c(Cl)c3)n2)cc1Cl ? active

Could you check what this test reported for Fc1ccc(Nc2ccc3cc(OCCCN4CCOCC4)ccc3n2)cc1F ? active

Could you check what this test reported for COc1ccc(/C(C)=C(\c2ccc(Cl)cc2)c2ccc(OCCCN(C)C)cc2)cc1F ? active

Could you check what this test reported for COc1ccc(OC)c(/C=C2\COc3ccc(O)cc3C2=O)c1 ? inactive

Could you check what this test reported for CN1CCN(C(=O)[C@@]2(C)CC[C@]3(C)CC[C@]4(C)C(=CC[C@@H]5[C@@]6(C)C/C(=C/c7ccncc7)C(=O)C(C)(C)[C@@H]6CC[C@]54C)[C@@H]3C2)CC1 ? inactive

Could you check what this test reported for COc1cc2oc(-c3cccc(C(=O)Nc4ccc(C)cc4)c3)cc(=O)c2c(OC)c1OC ? active

Could you check what this test reported for COc1ccc(CN2C(=O)/C(=C\c3cc(OC)c(OC)c(OC)c3)c3ccccc32)cc1 ? active
